Tested on: ECHCG, Barnyardgrass, Echinochloa crusgalli, (L.)Beau
Assay: Preemergence herbicidal evaluation (Example 148)
Assay type: in vivo
Conditions: rate 0.25 kg/ha, rating scale 0-9, two to four weeks after treatment
So basically, if Preemergence herbicidal rating ECHCG comes in under 4 it's class 1, and if it's 4 or more it's class 0.

Given the entry CCCN(CC)S(=O)(=O)NC(=O)c1cc(-n2c(=O)cc(C(F)(F)F)n(C)c2=O)c(F)cc1Cl [Example 62] , would its reported Preemergence herbicidal rating ECHCG be below 4?
class 0

And what about the compound CCN(C)S(=O)(=O)NC(=O)c1cc(-n2c(=O)cc(C(F)(F)F)n(C)c2=O)c(F)cc1Cl [Example 66] ?
class 0

And what about the compound Cn1c(C(F)(F)F)cc(=O)n(-c2cc(C(=O)NS(=O)(=O)NCc3cccs3)c(Cl)cc2F)c1=O [Example 77] ?
class 1

And what about the compound CN(Cc1ccccc1)S(=O)(=O)NC(=O)c1cc(-n2c(=O)cc(C(F)(F)F)n(C)c2=O)c(F)cc1Cl [Example 61] ?
class 0

And what about the compound CN(CCC#N)S(=O)(=O)NC(=O)c1cc(-n2c(=O)cc(C(F)(F)F)n(C)c2=O)c(F)cc1Cl [Example 84] ?
class 0

All values here come from patent US6689773B2.
